# SYSTEM: human 11β-HSD1 (Homo sapiens, UniProt P28845)
# Construct: expressed in transfected cells; host or cells: CHO cells (microsomes)
# Sequence (P28845 whole entry): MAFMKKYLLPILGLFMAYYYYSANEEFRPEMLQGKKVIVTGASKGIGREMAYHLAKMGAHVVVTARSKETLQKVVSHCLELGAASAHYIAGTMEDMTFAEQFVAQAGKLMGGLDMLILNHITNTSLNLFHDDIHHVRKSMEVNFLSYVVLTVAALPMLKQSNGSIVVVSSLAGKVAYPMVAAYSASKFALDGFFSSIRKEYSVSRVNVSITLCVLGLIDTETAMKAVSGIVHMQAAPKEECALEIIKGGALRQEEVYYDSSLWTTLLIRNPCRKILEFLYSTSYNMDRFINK
# TEST_SUMMARY: Inhibition of microsomal preparation of 11β-HSD1 (SPA, Biological Test Example 1)
# Type: biochemical
# CONDITION_NOTES: 100 nM
# Experimental: The inhibition of microsomal preparation of 11β-HSD1 by compounds of the invention was measured essentially as previously described (K. Solly, S. S. Mundt, H. J. Zokian, G. J. Ding, A. Hermanowski-Vosatka, B. Strulovici, and W. Zheng, High-Throughput Screening of 11-Beta-Hydroxysteroid Dehydrogenase Type 1 in Scintillation Proximity Assay Format. Assay Drug Dev Technol 3 (2005) 377-384). All reactions were carried out at rt in 96 well clear flexible PET Microbeta plates (PerkinElmer). […]
Use 90% as the dividing line for inhibition at 0.1 µM, with the line itself on the class 1 side and lower values as class 0.

Reference set, count: 2
CN1C(=O)c2cccc(Cl)c2C12CCN(C(=O)/C=C/c1ccccc1C(F)(F)F)CC2 [EXAMPLE 25] : class 1
NC(=O)CC1CC2(CCN(C(=O)/C=C/c3ccccc3C(F)(F)F)CC2)c2cc(F)ccc21 (racemic) [EXAMPLE 14] : class 0

*Q* Tell me whether inhibition at 0.1 µM is at least 90% here: O=C(O)CC1CC2(CCN(C(=O)Cc3ccc(F)cc3C(F)(F)F)CC2)c2c(Cl)cccc21 (stereo not drawn) [EXAMPLE 53]
*A* class 0

*Q* Tell me whether inhibition at 0.1 µM is at least 90% here: O=C1CC2(CCN(C(=O)/C=C/c3ccccc3C(F)(F)F)CC2)c2c(Br)cccc21 [EXAMPLE 15]
*A* class 1

*Q* Tell me whether inhibition at 0.1 µM is at least 90% here: O=C(/C=C/c1ccccc1C(F)(F)F)N1CCC2(CC1)CC(O)c1cccc(Br)c12 (racemic) [EXAMPLE 16]
*A* class 1

*Q* Tell me whether inhibition at 0.1 µM is at least 90% here: CCOC(=O)CC1CC2(CCN(C(=O)/C=C/c3ccccc3C(F)(F)F)CC2)c2c(Br)cccc21 (racemic) [EXAMPLE 1]
*A* class 1

*Q* Tell me whether inhibition at 0.1 µM is at least 90% here: NC(=O)CC1CC2(CCN(C(=O)/C=C/c3ccccc3C(F)(F)F)CC2)c2c(Br)cccc21 (racemic) [EXAMPLE 13]
*A* class 1

*Q* Tell me whether inhibition at 0.1 µM is at least 90% here: CN1C(=O)c2cccc(Cl)c2C12CCN(C(=O)CCc1ccccc1C(F)(F)F)CC2 [EXAMPLE 61]
*A* class 1

*Q* Tell me whether inhibition at 0.1 µM is at least 90% here: O=C(CCc1ccccc1C(F)(F)F)N1CCC2(CC1)C(=O)Nc1ccccc12 [EXAMPLE 67]
*A* class 1

*Q* Tell me whether inhibition at 0.1 µM is at least 90% here: O=C(O)CC1CC2(CCN(C(=O)/C=C/c3ccccc3C(F)(F)F)CC2)c2c(Cl)cccc21 (racemic) [EXAMPLE 3]
*A* class 1

###

# SYSTEM: human 11β-HSD1 (Homo sapiens)
# Construct: expressed in transfected cells; host or cells: CHO cells (microsomes)
# TEST_SUMMARY: Inhibition of microsomal preparation of 11β-HSD1 (SPA, Biological Test Example 1)
# Assay type: biochemical
# CONDITION_NOTES: 100 nM
OBSERVED_PROPERTY: inhibition at 0.1 µM (%)
Response body: numeric value in %, unit text excluded.

Here's what some known entries look like.
O=C(/C=C/c1ccccc1C(F)(F)F)N1CCC2(CC1)C(=O)Nc1ccc(F)cc12 [EXAMPLE 41] : 91.2
COc1ccc2c(c1)CCNC21CCN(C(=O)/C=C/c2ccccc2C(F)(F)F)CC1 [EXAMPLE 30] : 90.3

Now for another entry.
Entry CN1C(=O)C2(CCN(C(=O)/C=C/c3ccccc3C(F)(F)F)CC2)c2ccccc21 [EXAMPLE 31] ; inhibition at 0.1 µM = 99.9
